pIC50 values by entry
test system: 233499-124-R-J3-PDC spheroids with HUVEC/MSC, viability; assay: Anticancer human tumor 233499-124-R-J3-PDC patient-derived colon adenocarcinoma cell line growth inhibition [PI3K]; conditions: curve of first compound; second compound 0.0316 µM;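 also: spheroids exposed to agents for seven days before readout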
pIC50: −log10 of the molar value.

CC(Cn1ccc(-c2ccc(C#N)c(Cl)c2)n1)NC(=O)c1cc(C(C)O)[nH]n1 (stereo unspecified) + COc1c(OCCCN2CCOCC2)ccc2c3n(c(=NC(=O)c4cnc(N)nc4)nc12)CCN3; < 5.00
Cn1nccc1Nc1nccc(-c2ccn(C(CO)c3ccc(Cl)c(F)c3)c(=O)c2)n1 (stereo unspecified) + Cc1nc(NC(=O)N2CCCC2C(N)=O)sc1-c1ccnc(C(C)(C)C(F)(F)F)c1; < 5.00
CC(=O)c1c(C)c2cnc(Nc3ccc(N4CCNCC4)cn3)nc2n(C2CCCC2)c1=O + CC(Nc1ccc2c(c1)OCCn1cc(N3C(=O)OCC3C(F)F)nc1-2)C(N)=O; < 7.00

input: # get_value(readout= pIC50, system= 233499-124-R-J3-PDC spheroids with HUVEC/MSC, viability) for CC(=O)c1c(C)c2cnc(Nc3ccc(N4CCNCC4)cn3)nc2n(C2CCCC2)c1=O + Cc1nc(NC(=O)N2CCCC2C(N)=O)sc1-c1ccnc(C(C)(C)C(F)(F)F)c1;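 also: spheroids exposed to agents for seven days before readout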
output: < 7.00

input: Find pIC50 (233499-124-R-J3-PDC spheroids with HUVEC/MSC, viability) for the entry CCN1CCN(Cc2ccc(Nc3ncc(F)c(-c4cc(F)c5nc(C)n(C(C)C)c5c4)n3)nc2)CC1 + CC(Nc1ccc2c(c1)OCCn1cc(N3C(=O)OCC3C(F)F)nc1-2)C(N)=O
output: 6.28

input: Short answer please: pIC50, 233499-124-R-J3-PDC spheroids with HUVEC/MSC, viability, entry CNC(=O)c1ccc(N2C(=S)N(c3ccc(C#N)c(C(F)(F)F)c3)C(=O)C2(C)C)cc1F + CC(Nc1ccc2c(c1)OCCn1cc(N3C(=O)OCC3C(F)F)nc1-2)C(N)=O
output: < 5.00

input: Item: CC(C)NCC(C(=O)N1CCN(c2ncnc3c2C(C)CC3O)CC1)c1ccc(Cl)cc1 (stereo unspecified) + CC(Nc1ncnc2nc[nH]c12)c1cc2cccc(Cl)c2c(=O)n1-c1ccccc1 Test system: 233499-124-R-J3-PDC spheroids with HUVEC/MSC, viability Read-out: pIC50 Value: ?;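 also: spheroids exposed to agents for seven days before readout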
output: < 5.00

input: Find pIC50 (233499-124-R-J3-PDC spheroids with HUVEC/MSC, viability) for the entry Cn1ncc(Cl)c1-c1cc(C(=O)NC(CN)Cc2cccc(F)c2)sc1Cl (stereo unspecified) + Cc1nc(NC(=O)N2CCCC2C(N)=O)sc1-c1ccnc(C(C)(C)C(F)(F)F)c1
output: 5.26

input: Param readout = pIC50; param system = 233499-124-R-J3-PDC spheroids with HUVEC/MSC, viability; param query = CC1(C)CCC(CN2CCN(c3ccc(C(=O)NS(=O)(=O)c4ccc(NCC5CCOCC5)c([N+](=O)[O-])c4)c(Oc4cnc5[nH]ccc5c4)c3)CC2)=C(c2ccc(Cl)cc2)C1 + Cc1nc(NC(=O)N2CCCC2C(N)=O)sc1-c1ccnc(C(C)(C)C(F)(F)F)c1 ; response: value;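 also: spheroids exposed to agents for seven days before readout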
output: 5.21

input: Lab request: please report pIC50 under test system 233499-124-R-J3-PDC spheroids with HUVEC/MSC, viability for Cn1cnc2c(F)c(Nc3ccc(Br)cc3Cl)c(C(=O)NOCCO)cc21 + CC(Nc1ncnc2nc[nH]c12)c1cc2cccc(Cl)c2c(=O)n1-c1ccccc1;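 also: spheroids exposed to agents for seven days before readout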
output: 6.22

input: For the record C#Cc1c(F)ccc2cc(O)cc(-c3ncc4c(N5CC6CCC(C5)N6)nc(OCC56CCCN5CC(F)C6)nc4c3F)c12 (stereo unspecified) + CC(Nc1ccc2c(c1)OCCn1cc(N3C(=O)OCC3C(F)F)nc1-2)C(N)=O , what value of pIC50 is listed for 233499-124-R-J3-PDC spheroids with HUVEC/MSC, viability?
output: < 5.00

input: Lookup: pIC50 / 233499-124-R-J3-PDC spheroids with HUVEC/MSC, viability / CC(C)n1nc(-c2ccc3oc(N)nc3c2)c2c(N)ncnc21 + COc1c(OCCCN2CCOCC2)ccc2c3n(c(=NC(=O)c4cnc(N)nc4)nc12)CCN3
output: 7.26

input: What pIC50 appears in the records for this compound with 233499-124-R-J3-PDC spheroids with HUVEC/MSC, viability? CCCS(=O)(=O)Nc1ccc(F)c(C(=O)c2c[nH]c3ncc(-c4ccc(Cl)cc4)cc23)c1F + CC(Nc1ncnc2nc[nH]c12)c1cc2cccc(Cl)c2c(=O)n1-c1ccccc1
output: 5.30

input: pIC50 of C=CC(=O)N1CCN(c2nc(=O)n(-c3c(C)ccnc3C(C)C)c3nc(-c4c(O)cccc4F)c(F)cc23)C(C)C1 (stereo unspecified) + CC(Nc1ccc2c(c1)OCCn1cc(N3C(=O)OCC3C(F)F)nc1-2)C(N)=O on 233499-124-R-J3-PDC spheroids with HUVEC/MSC, viability?
output: < 5.00

input: Lab request: please report pIC50 under test system 233499-124-R-J3-PDC spheroids with HUVEC/MSC, viability for C[C@@H](NC(=O)c1ncnc(N)c1Cl)c1ncc(C(=O)Nc2cc(C(F)(F)F)c(Cl)cn2)s1 + CC(Nc1ncnc2nc[nH]c12)c1cc2cccc(Cl)c2c(=O)n1-c1ccccc1;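 also: spheroids exposed to agents for seven days before readout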
output: < 5.00

input: Entry CC(C)n1nc(-c2ccc3oc(N)nc3c2)c2c(N)ncnc21 + Cc1nc(NC(=O)N2CCCC2C(N)=O)sc1-c1ccnc(C(C)(C)C(F)(F)F)c1 , system 233499-124-R-J3-PDC spheroids with HUVEC/MSC, viability: what pIC50 was measured?;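 also: spheroids exposed to agents for seven days before readout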
output: < 7.00

input: Which pIC50 is reported with 233499-124-R-J3-PDC spheroids with HUVEC/MSC, viability for this entry: CC1(C)CCC(CN2CCN(c3ccc(C(=O)NS(=O)(=O)c4ccc(NCC5CCOCC5)c([N+](=O)[O-])c4)c(Oc4cnc5[nH]ccc5c4)c3)CC2)=C(c2ccc(Cl)cc2)C1 + COc1c(OCCCN2CCOCC2)ccc2c3n(c(=NC(=O)c4cnc(N)nc4)nc12)CCN3 ?
output: < 5.00

input: Checklist item: pIC50 tested on 233499-124-R-J3-PDC spheroids with HUVEC/MSC, viability, entry CC1(C)CCC(CN2CCN(c3ccc(C(=O)NS(=O)(=O)c4ccc(NCC5CCOCC5)c([N+](=O)[O-])c4)c(Oc4cnc5[nH]ccc5c4)c3)CC2)=C(c2ccc(Cl)cc2)C1 + CC(Nc1ncnc2nc[nH]c12)c1cc2cccc(Cl)c2c(=O)n1-c1ccccc1 , value?;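 also: spheroids exposed to agents for seven days before readout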
output: 5.24

input: Recall the recorded pIC50 for C=CC(=O)N1CCN(c2nc(=O)n(-c3c(C)ccnc3C(C)C)c3nc(-c4c(O)cccc4F)c(F)cc23)C(C)C1 (stereo unspecified) + CC(Nc1ncnc2nc[nH]c12)c1cc2cccc(Cl)c2c(=O)n1-c1ccccc1 with 233499-124-R-J3-PDC spheroids with HUVEC/MSC, viability and state it.
output: < 5.00

input: Can you look up pIC50 on 233499-124-R-J3-PDC spheroids with HUVEC/MSC, viability for CC(Cn1ccc(-c2ccc(C#N)c(Cl)c2)n1)NC(=O)c1cc(C(C)O)[nH]n1 (stereo unspecified) + Cc1nc(NC(=O)N2CCCC2C(N)=O)sc1-c1ccnc(C(C)(C)C(F)(F)F)c1 ?
output: < 5.00

input: Any idea what pIC50 came out for CCN1CCN(Cc2ccc(Nc3ncc(F)c(-c4cc(F)c5nc(C)n(C(C)C)c5c4)n3)nc2)CC1 + CC(Nc1ncnc2nc[nH]c12)c1cc2cccc(Cl)c2c(=O)n1-c1ccccc1 on 233499-124-R-J3-PDC spheroids with HUVEC/MSC, viability?
output: 6.04
